Tested on: HOS-TE85
Assay: Antiproliferative activity against human MNNG/HOS cells assessed as inhibition of cell growth incubated for 72 hrs by CCK8 assay
Type: functional, cell-based
Settings: HOS-TE85, 72 h
pIC50: −log10 of the molar value.

{"MOLECULE": "O=C(NCCCCc1ccccc1)c1ccc(C2N(c3ccccc3)C(=O)CS2(=O)=O)cc1 (stereo not given)", "pIC50": "< 5.00"}
{"MOLECULE": "O=C(NCCOCc1ccccc1)c1cccc(C2N(c3ccccn3)C(=O)CS2(=O)=O)n1 (stereo not given)", "pIC50": "< 6.00"}
{"MOLECULE": "COCCCCNC(=O)c1cccc(C2N(c3ncccc3OC)C(=O)CS2(=O)=O)c1 (stereo not given)", "pIC50": "< 6.00"}
{"MOLECULE": "O=C(CCCNC(=O)c1cccc(C2N(c3ccccn3)C(=O)CS2(=O)=O)n1)Nc1ccc(F)cc1 (stereo not given)", "pIC50": "< 6.00"}
{"MOLECULE": "O=C(NCCCCc1ccccc1)c1cccc(C2N(c3cccc4ccccc34)C(=O)CS2(=O)=O)c1 (stereo not given)", "pIC50": "< 5.00"}
{"MOLECULE": "O=C(NCCCCO)c1cccc(C2N(c3ccccn3)C(=O)CS2(=O)=O)n1 (stereo not given)", "pIC50": "< 6.00"}
{"MOLECULE": "CC(C)(C)OCCCCNC(=O)c1cccc(C2N(c3ccccn3)C(=O)CS2(=O)=O)n1 (stereo not given)", "pIC50": "< 6.00"}
{"MOLECULE": "O=C(CCCNC(=O)c1cccc(C2N(c3ccccn3)C(=O)CS2(=O)=O)n1)c1ccccc1 (stereo not given)", "pIC50": 6.69}
{"MOLECULE": "COc1cccnc1N1C(=O)CS(=O)(=O)C1c1cccc(C(=O)NCCCCc2ccccc2)c1 (stereo not given)", "pIC50": 7.80}
{"MOLECULE": "C#Cc1cc(C(=O)NCCCCc2ccccc2)cc(C2N(c3ccccc3)C(=O)CS2(=O)=O)c1 (stereo not given)", "pIC50": 8.05}
